- assay-details: in vitro
- test-parameters: mouse, B16F10 cells
No end group written: not given here. *: point of attachment. DOTA = O=C(O)CN1CCN(CC(=O)O)CCN(CC(=O)*)CCN(CC(=O)O)CC1
readout-kind: viability at 24 h, 100 µg/mL (%)
// return numeric value only (unit: %, not printed)

Any idea what its viability at 24 h, 100 µg/mL is? The substance is {DOTA}-YGRKKRRQRRRCASTEEKWARLARRIAGAGGVTLDGFGGCA (cysteines drawn unpaired) [AP1]
94.7
